# assayed system: T1, PCSK9 V domain (450-692 of SEQ ID NO: 3) (human, UniProt Q8NBP7 450-692)
# T1 construct: also called v-domain PCSK9
# T1 chain: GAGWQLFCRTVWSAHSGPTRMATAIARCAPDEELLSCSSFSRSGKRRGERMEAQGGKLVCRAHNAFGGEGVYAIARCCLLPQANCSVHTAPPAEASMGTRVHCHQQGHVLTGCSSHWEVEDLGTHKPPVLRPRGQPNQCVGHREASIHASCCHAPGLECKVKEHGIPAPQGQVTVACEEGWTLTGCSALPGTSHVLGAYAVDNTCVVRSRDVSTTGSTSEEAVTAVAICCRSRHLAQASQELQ
# procedure summary: domain binding ELISA (coated antibody captures the PCSK9 form; OD650)
measured attribute: binding result

1) 16F12 (antibody, V domains shown, lambda light chain) VH: QVHLVESGGGVVQPGRSLRLSCAASGFTFNSFGMHWVRQAPGKGLEWVALIWSDGSDEYYADSVKGRFTISRDNSKNTLYLQMNSLRAEDTAVYYCARAIAALYYYYGMDVWGQGTTVTVSS VL: QSVLTQPPSVSAAPGQKVTISCSGSSSNIGNNFVSWYQQLPGTAPKLLIYDYNKRPSGIPDRFSGSKSGTSATLGITGLQTGDEADYYCGTWDSSLSAYVFGTGTRVTVL	no binding
2) 27A6 (antibody, V domains shown) VH: QVHLVESGGGVVQPGRSLRLSCAASGFTFNSFGMHWVRQAPGKGLEWVALIWSDGSDKYYADSVKGRFTISRDNSKNTLYLQMNSLRAEDTAVYYCARAIAALYYYYGMDVWGQGTTVTVSS VL: QSVLTQPPSVSAAPGQKVTISCSGSSSNIGNNFVSWYQQFPGTAPKLLIYDYNKRPSGIPDRFSGSKSGTSATLGITGLQTGDEADYYCGTWDSSLSSYVFGTGTRVTVL	no binding
3) 31G11 (antibody, V domains shown) VH: QVQLVESGGGVVQPGRSLRLSCAASGFTFRSYGMHWVRQAPGKGLEWVALIWHDGSNTYYVDSVKGRFTISRDNSKNTLYLQMNSLRAEDTAVYYCARGIAVAYYYYGMDVWGQGTTVTVSS VL: QSVLTQPPSVSAAPGQKVTISCSGSSSNIGNNFVSWYQQLPGTAPKLLIYDSNKRPSGIPDRFSGSKSGTSATLDITGLQTGDEADYYCGTWDSSLSAYVFGTGTKVTVL	no binding
4) 3B6 (antibody, V domains shown) VH: QVQLVQSGAEVKKPGASVKVSCKASGYTFTSYGISWVRQAPGQGLEWMGWISTYNGNTNYAQKVQGRVTMTTDTSTSTAYMELRSLRSDDTAVYYCARGYTRDYWGQGTLVTVSS VL: QPVLTQPLFASASLGASVTLTCTLSSGYSSYEVDWYQQRPGKGPRFVMRVDTGGIVGSKGEGIPDRFSVLGSGLNRYLTIKNIQEEDESDYHCGADHGSGTNFVVVFGGGTKLTVL	no binding
5) 31D1 (antibody, V domains shown) VH: QIQLVQSGAEVKKPGASVKVSCKASGYTLTSYGISWVRQAPGQGLEWMGWISFYNGNTNYAQKVQGRVTMTTDTSTSTVYMELRSLRSDDTAVYFCARGYGMDVWGQGTTVTVSS VL: QSALTQPASVSGSPGQSITISCTGTSSDVGGYNSVSWYQQHPGKPPKLMIYEVSNRPSGVSNRFSGSKSGNTASLTISGLQAEDEADYFCSSYTSTSMVFGGGTKLAVL	no binding
6) 26H5 (antibody, V domains shown, also called 26H5-7.4) VH: QVQLVQSGAEVKKPGASVKVSCKASGYTLTSYGISWVRQAPGQGLEWMGWISFYNGNTNYAQKVQGRVTMTTDTSTSTVYMELRSLRSDDTAVYYCARGYGMDVWGQGTTVTVSS VL: QSALTQPASVSGSPGQSITISCTGTSSDVGGYNSVSWYQQHPGKPPKLMIYEVSNRPSGVSIRFSGSKSGNTASLTISGLQAEDEADYFCSSYTSTSMVFGGGTKLTVL	no binding
7) 28B12 (antibody, V domains shown) VH: QVQLVESGGGVVQPGRSLRLSCAASGFTFSSFGMHWVRQAPGKGLEWVALIWNDGSNKYYADSVKGRFTISRDNSKNTLYLQMNSLRAEDTAVYYCARAIAALYYYYGMDVWGHGTTVTVSS VL: QSVLTQPPSVSAAPGQKVTISCSGSSSNIGNNFVSWYQQLPGTAPKLLIYDYNKRPSGIPDRFSGSKSGTSATLGITGLQTGDEADYYCGTWDSSLSGYVFGTGTRVTVL	no binding
8) 22E2 (antibody, V domains shown) VH: QVQLVESGGGVVQPGRSLRLSCAASGFTFSSFGMHWVRQAPGKGLEWVALIWNDGSNKYYADSVKGRFTISRDNSKNTLYLQMNSLRAEDTAVYYCARAIAALYYYYGMDVWGQGTTVTVSS VL: QSVLTQPPSVSAAPGQKVTISCSGSSSNIGNNFVSWYQQLPGTAPKLLIYDYNKRPSGIPDRFSGSKSGTSATLGITGLQTGDEADYYCGTWDSSLSGYVFGTGTRVTVL	no binding
9) 20D10 (antibody, V domains shown) VH: QIQLVQSGAEVKKPGASVKVSCKASGYPLTSYGISWVRQAPGQGLEWMGWISAYNGNTNYAQKVQGSVTMTTDTSTSTVYMELRSLRSDDTAVYYCARGYGMDVWGQGTTVTVSS VL: QSALTQPASVSGSPGQSITISCTGTSSDVGGYNSVSWYQQYPGKPPKLKIYEVSNRPSGVSNRFSGSKSGNTASLTISGLQAEDEADYFCSSYTSTSMVFGGGTKLTVL	no binding
10) 28D6 (antibody, V domains shown) VH: QVQLVESGGGVVQPGRSLRLSCAASGFTFSSFGMHWVRQAPGKGLEWVALIWNDGSNKYYADSVKGRFTISRDNSKNTLYLQMNSLRAEDTAVYYCARAIAALYYYYGMDVWGQGTTVTVSS VL: QSVLTQPPTVSAAPGQKVTISCSGSSSNIGNNFVSWYQQLPGTAPKLLIYDYNKRPSGIPDRFSGSKSGTSATLGITGLQTGDEADYYCGTWDSSLSGYVFGTGTRVTVL	no binding

Quote binding result reported for 23G1 (antibody, V domains shown) VH: QVQLVQSGAEVKKPGASVKVSCKASGYTLTSYGISWVRQAPGQGLEWMGWVSFYNGNTNYAQKLQGRGTMTTDPSTSTAYMELRSLRSDDTAVYYCARGYGMDVWGQGTTVTVSS VL: QSALTQPASVSGSPGQSITISCTGTSSDVGGYNSVSWYQQHPGKAPKLMIYEVTNRPSGVSNRFSGSKSGNTASLTISGLQAEDEADYYCNSYTSTSMVFGGGTKLTVL please.
no binding
